Test: CHI Log D procedure
Assay type: physicochemical
Settings: pH 7.4, CHI Log D
Measurement Kind: chromatographic logD
Output: the number by itself.

Worked examples, 2 compounds total:
[[record]]
compound = "CC(=O)N1CCC[C@]12CC=CCCCC1(CCCC=CCCCOC(=O)N3CC[C@@](C(=O)N[C@@H](Cc4ccccc4Cl)C(=O)N[C@@H](Cc4csc5ccccc45)C(=O)N[C@@H](CO)C(N)=O)(C3)NC(=O)[C@H](Cc3ccccc3)NC(=O)[C@H](Cc3ccccc3)NC(=O)[C@H](C)NC(=O)[C@H](C)NC(=O)[C@H](CN(CC(=O)O)CC(F)(F)F)NC(=O)[C@H](CC(=O)O)NC1=O)NC(=O)[C@H](CC(C)(C)C)NC(=O)[C@H](CC(=O)O)NC2=O (stereo partly drawn)"
experimental_result = 2.65

[[record]]
compound = "CC[C@H](C)[C@@H]1NC(=O)C[C@@H](CC(=O)O)NC(=O)[C@]2(CC=CCCCC3(CCCC=CCCCCCC[C@@](C)(C(=O)N[C@@H](Cc4ccccc4)C(=O)N[C@@H](Cc4csc5ccccc45)C(=O)N[C@@H](CCC(N)=O)C(N)=O)NC(=O)[C@H](CCC(N)=O)NC(=O)[C@H](Cc4ccccc4)NC(=O)[C@H](C)NC(=O)[C@H](C)NC(=O)[C@H](CCC(=O)O)NC(=O)[C@H](CC(=O)O)NC3=O)NC1=O)CCCN2C(C)=O (stereo partly drawn)"
experimental_result = 1.9


(Q) Quick one: chromatographic logD for CCCC[C@@H]1NC(=O)C2(CCCC=CCCCCCC[C@@](C)(C(=O)N[C@@H](Cc3ccccc3)C(=O)N[C@@H](Cc3c[nH]c4ccccc34)C(=O)N[C@@H](CCC(N)=O)C(N)=O)NC(=O)[C@H](C(C)C)NC(=O)[C@H](Cc3ccccc3)NC(=O)[C@H](C)NC(=O)[C@H](C)NC(=O)[C@H](CCC(=O)O)NC1=O)CCCC=CC[C@]1(CCCN1C(C)=O)C(=O)N[C@@H](CC(=O)O)C(=O)N[C@@H](C)C(=O)N2 (stereo partly drawn) ?
(A) 3.84

* * *

Test: CHI Log D procedure
Type: physicochemical
Conditions: pH 7.4, CHI Log D
Below: a set of entries, each annotated with reported chromatographic logD.

[[record]]
molecule = "CC[C@H](C)[C@@H]1NC(=O)[C@H](CC(=O)O)NC(=O)[C@]2(CC=CCCCC3(CCCC=CCCCCCC[C@@](C)(C(=O)N[C@@H](Cc4ccccc4)C(=O)N[C@@H](Cc4csc5ccccc45)C(=O)N[C@@H](Cc4c[nH]cn4)C(N)=O)NC(=O)[C@H](CC(N)=O)NC(=O)[C@H](Cc4ccccc4)NC(=O)[C@H](C)NC(=O)[C@H](C)NC(=O)[C@H](CCC(=O)O)NC(=O)[C@H](CC(=O)O)NC3=O)NC1=O)CCCN2C(C)=O (stereo partly drawn) [I-472]"
measurement_kind = "chromatographic logD"
experimental_result = 2.42

[[record]]
molecule = "CC(=O)N1CCC[C@]12CC=CCCCC1(CCCC=CCCCOC(=O)N3CC[C@@](C(=O)N[C@@H](Cc4ccsc4)C(=O)N[C@@H](Cc4csc5ccccc45)C(=O)N[C@@H](CCC(N)=O)C(N)=O)(C3)NC(=O)[C@H](Cc3ccccc3)NC(=O)[C@H](Cc3ccccc3)NC(=O)[C@H](C)NC(=O)[C@H](C)NC(=O)[C@H](CC(N)=O)NC(=O)[C@H](CC(=O)O)NC1=O)NC(=O)[C@H](CC(C)(C)C)NC(=O)[C@H](CC(=O)O)NC2=O (stereo partly drawn) [I-855]"
measurement_kind = "chromatographic logD"
experimental_result = 2.54


// below: chromatographic logD requested for another molecule
(Q) Quick one: chromatographic logD for CC(=O)N1CCC[C@]12CC=CCCCC1(CCCC=CCCCOC(=O)N3CC[C@@](C(=O)N[C@@H](Cc4ccsc4)C(=O)N[C@@H](Cc4csc5ccccc45)C(=O)N[C@@H](CCC(N)=O)C(=O)N[C@@H](CCCCNC(=O)CN4CCN(C)CC4)C(N)=O)(C3)NC(=O)[C@H](CC(N)=O)NC(=O)[C@H](Cc3ccccc3)NC(=O)[C@H](C)NC(=O)[C@H](C)NC(=O)[C@H](CC(=O)O)NC(=O)[C@H](CC(=O)O)NC1=O)NC(=O)[C@H](CC(C)(C)C)NC(=O)[C@H](CC(=O)O)NC2=O (stereo partly drawn) [I-906] ?
(A) 1.75

* * *

Assay: CHI Log D procedure
Assay type: physicochemical
Conditions: pH 7.4
Measurement Kind: CHI Log D

Worked examples, 9 compounds total:
[[record]]
compound = "CC(=O)N1CCC[C@]12CC=CCCCC1(CCCC=CCCCOC(=O)N3CC[C@@](C(=O)N[C@@H](Cc4ccccc4Cl)C(=O)N[C@@H](Cc4csc5ccccc45)C(=O)N[C@@H](CCC(N)=O)C(N)=O)(C3)NC(=O)[C@H](CC(C)C)NC(=O)[C@H](Cc3ccccc3)NC(=O)[C@H](C)NC(=O)[C@H](C)NC(=O)[C@H](CC(=O)O)NC(=O)[C@H](CC(=O)O)NC1=O)NC(=O)[C@H](CC1CCCCC1)NC(=O)[C@H](CC(=O)O)NC2=O (stereo partly shown) [I-1076]"
experimental_result = 2.049

[[record]]
compound = "CC(=O)N1CCC[C@]12CC=CCCCC1(CCCC=CCOC(=O)N(C)CCC[C@@](C)(C(=O)N[C@@H](Cc3ccccc3)C(=O)N[C@@H](Cc3c[nH]c4ccccc34)C(=O)N[C@@H](CCC(N)=O)C(N)=O)NC(=O)[C@H](C(C)C)NC(=O)[C@H](Cc3ccccc3)NC(=O)[C@H](C)NC(=O)[C@H](C)NC(=O)[C@H](CC(=O)O)NC(=O)[C@H](CC(=O)O)NC1=O)NC(=O)[C@H](C)NC(=O)[C@H](CC(=O)O)NC2=O (stereo partly shown) [I-53]"
experimental_result = 1.307

[[record]]
compound = "CC[C@H](C)[C@@H]1NC(=O)[C@H](CC(=O)O)NC(=O)[C@]2(CC=CCCCC3(CCCC=CCCCCCC[C@@](C)(C(=O)N[C@@H](Cc4ccccc4)C(=O)N[C@@H](Cc4csc5ccccc45)C(=O)N[C@@H](CCC(N)=O)C(N)=O)NC(=O)[C@H](CCC(N)=O)NC(=O)[C@H](Cc4ccccc4)NC(=O)[C@H](C)NC(=O)[C@H](C)NC(=O)[C@H](CCCNC(=N)N)NC(=O)[C@H](CC(=O)O)NC3=O)NC1=O)CCCN2C(C)=O (stereo partly shown) [I-613]"
experimental_result = 2.781

[[record]]
compound = "CC(=O)N1CCC[C@]12CC=CCCCC1(CCCC=CCCCCCC[C@@](C)(C(=O)N[C@@H](Cc3cccc(Cl)c3)C(=O)N[C@@H](Cc3c[nH]c4ccccc34)C(=O)N[C@@H](CCC(N)=O)C(N)=O)NC(=O)[C@H](C(C)C)NC(=O)[C@H](Cc3ccccc3)NC(=O)[C@H](C)NC(=O)[C@H](C)NC(=O)[C@H](CC(=O)O)NC(=O)[C@H](CC(=O)O)NC1=O)NC(=O)[C@H](C)NC(=O)[C@H](CC(=O)O)NC2=O (stereo partly shown) [I-311]"
experimental_result = 2.226

[[record]]
compound = "CC(=O)N1CCC[C@]12CC=CCCCC1(CCCC=CCCCOC(=O)N3CC[C@@](C(=O)N[C@@H](Cc4ccsc4)C(=O)N[C@@H](Cc4csc5ccccc45)C(=O)N[C@@H](CO)C(N)=O)(C3)NC(=O)[C@H](Cc3ccccc3)NC(=O)[C@H](Cc3ccccc3)NC(=O)[C@H](C)NC(=O)[C@H](C)NC(=O)[C@H](Cc3cccc(C(=O)O)c3)NC(=O)[C@H](CC(=O)O)NC1=O)NC(=O)[C@H](CC(C)(C)C)NC(=O)[C@H](CC(=O)O)NC2=O (stereo partly shown) [I-983]"
experimental_result = 1.919

[[record]]
compound = "CC[C@@H](C)[C@@H]1NC(=O)[C@H](CC(=O)O)NC(=O)[C@]2(CC=CCCCC3(CCCC=CCCCCCC[C@@](C)(C(=O)N[C@@H](Cc4ccccc4)C(=O)N[C@@H](Cc4csc5ccccc45)C(=O)N[C@@H](CCC(N)=O)C(N)=O)NC(=O)[C@H](CC(N)=O)NC(=O)[C@H](Cc4ccccc4)NC(=O)[C@H](C)NC(=O)[C@H](C)NC(=O)[C@H](CCC(=O)O)NC(=O)[C@H](CC(=O)O)NC3=O)NC1=O)CCCN2C(C)=O (stereo partly shown) [I-475]"
experimental_result = 2.277

[[record]]
compound = "CC(=O)N1CCC[C@]12CC=CCCCC1(CCCC=CCCCCCC[C@@](C)(C(=O)N[C@@H](Cc3cccc(C(F)(F)F)c3)C(=O)N[C@@H](Cc3c[nH]c4ccccc34)C(=O)N[C@@H](CCC(N)=O)C(N)=O)NC(=O)[C@H](C(C)C)NC(=O)[C@H](Cc3ccccc3)NC(=O)[C@H](C)NC(=O)[C@H](C)NC(=O)[C@H](CC(=O)O)NC(=O)[C@H](CC(=O)O)NC1=O)NC(=O)[C@H](C)NC(=O)[C@H](CC(=O)O)NC2=O (stereo partly shown) [I-248]"
experimental_result = 2.263

[[record]]
compound = "CC(=O)N1CCC[C@]12CC=CCCCC1(CCCC=CCOC(=O)N(C)CCC[C@@](C)(C(=O)N[C@@H](Cc3ccsc3)C(=O)N[C@@H](Cc3csc4ccccc34)C(=O)N[C@@H](Cc3c[nH]cn3)C(N)=O)NC(=O)[C@H](CC(N)=O)NC(=O)[C@H](Cc3ccccc3)NC(=O)[C@H](C)NC(=O)[C@H](C)NC(=O)[C@H](CC(=O)O)NC(=O)[C@H](CC(=O)O)NC1=O)NC(=O)[C@H](CC(C)(C)C)NC(=O)[C@H](CC(=O)O)NC2=O (stereo partly shown) [I-773]"
experimental_result = 1.76

[[record]]
compound = "CC(=O)N1CCC[C@]12CC=CCCCC1(CCCC=CCCCCCC[C@@](C)(C(=O)N[C@@H](Cc3ccccc3)C(=O)N[C@@H](Cc3c[nH]c4ccccc34)C(=O)N[C@@H](CCC(N)=O)C(N)=O)NC(=O)[C@H](C(C)C)NC(=O)[C@H](Cc3ccccc3)NC(=O)[C@H](C)NC(=O)[C@H](C)NC(=O)[C@H](CC(=O)O)NC(=O)[C@H](CC(=O)O)NC1=O)NC(=O)[C@H](C)NC(=O)[C@H](CCC(=O)O)NC2=O (stereo partly shown) [I-279]"
experimental_result = 1.973


(Q) Quick one: CHI Log D for CC[C@H](C)[C@@H]1NC(=O)[C@H](CC(=O)O)NC(=O)[C@]2(CC=CCCCC3(CCCC=CCCCCCC[C@@](C)(C(=O)N[C@@H](Cc4ccccc4)C(=O)N[C@@H](Cc4csc5ccccc45)C(=O)N[C@@H](CCC(N)=O)C(N)=O)NC(=O)[C@H](CCC(N)=O)NC(=O)[C@H](Cc4ccccc4)NC(=O)[C@H](CO)NC(=O)[C@H](C)NC(=O)[C@H](CCC(=O)O)NC(=O)[C@H](CC(=O)O)NC3=O)NC1=O)CCCN2C(C)=O (stereo partly shown) [I-662] ?
(A) 2.125

These measurements were taken from patent US20240116985A1.
